Data provenance is BindingDB's records for doi:10.1021/jm00060a006.

Procedure summary: Inhibition of PAF-induced rabbit platelet aggregation
pIC50: −log10 of the molar value.
Measurement label: pIC50

Some compounds with known pIC50 results, for comparison:
CCC(CC)C(=O)OCC1CN(Cc2cc(OC)c(OC)c(OC)c2)CCN1Cc1cc(OC)c(OC)c(OC)c1 (centres undefined)	5.57
CCCCCCCCCCCCCCCCCC(=O)OCC1CN(C(=O)c2cc(OC)c(OC)c(OC)c2)CCN1C(=O)c1cc(OC)c(OC)c(OC)c1 (centres undefined)	4.35

(a) CCCCCCCCCC(=O)OCC1CN(C(=O)c2cc(OC)c(OC)c(OC)c2)CCN1C(=O)c1cc(OC)c(OC)c(OC)c1 (centres undefined)
(b) COc1cc(C(=O)N2CCN(C(=O)c3cc(OC)c(OC)c(OC)c3)C(COC(=O)COc3ccc(Cl)cc3)C2)cc(OC)c1OC (centres undefined)
Enquiry: Select the item whose pIC50 value is smaller, choosing between a and b . Write down the label attached to your selection.
Return: b
(b: 5.30, a: 5.55)

====

Procedure summary: Inhibition of [3H]PAF binding to rabbit platelet membrane
Measurement label: EC50 (nM)

Some compounds with known EC50 results, for comparison:
COc1cc(C(=O)N2CCN(C(=O)c3cc(OC)c(OC)c(OC)c3)C(COC(=O)NC(C)CC(C)C)C2)cc(OC)c1OC (stereo not drawn)	180
COc1cc(C(=O)N2CCN(C(=O)c3cc(OC)c(OC)c(OC)c3)C(COC(=O)NC(C)C(C)C)C2)cc(OC)c1OC (stereo not drawn)	70
COc1cc(C(=O)N2CCN(C(=O)c3cc(OC)c(OC)c(OC)c3)C(COC(C)=O)C2)cc(OC)c1OC (stereo not drawn)	400
CCCCNC(=O)OCC1CN(C(=O)c2cc(OC)c(OC)c(OC)c2)CCN1C(=O)c1cc(OC)c(OC)c(OC)c1 (stereo not drawn)	700

(P) C[C@@H]1C(=O)O[C@H]2[C@H](O)[C@@]34[C@H]5C[C@@H](C(C)(C)C)[C@]36[C@@H](OC(=O)[C@@H]6O)O[C@@]4(C(=O)O5)[C@@]12O
(Q) CCCN(CCC)C(=O)OCC1CN(C(=O)c2cc(OC)c(OC)c(OC)c2)CCN1C(=O)c1cc(OC)c(OC)c(OC)c1 (stereo not drawn)
(R) COc1cc(C(=O)N2CCN(C(=O)c3cc(OC)c(OC)c(OC)c3)C(COC(=O)C(C)(C)C)C2)cc(OC)c1OC (stereo not drawn)
(S) COc1cc(C(=O)N2CCN(C(=O)c3cc(OC)c(OC)c(OC)c3)C(COC(=O)c3ccccc3Cl)C2)cc(OC)c1OC (stereo not drawn)
Enquiry: Number of compounds to sort: 4. Sort criterion: EC50, ascending. When ranking, write the labels in the order the request describes.
Return: P, R, S, Q

====

Procedure summary: Inhibition of PAF-induced rabbit platelet aggregation
pIC50: −log10 of the molar value.
Measurement label: pIC50

CCC(C)(C)NC(=O)OCC1CN(C(=O)c2cc(OC)c(OC)c(OC)c2)CCN1C(=O)c1cc(OC)c(OC)c(OC)c1 (centres undefined)	6.49

(1) CCCCCN(CCCCC)C(=O)OCC1CN(C(=O)c2cc(OC)c(OC)c(OC)c2)CCN1C(=O)c1cc(OC)c(OC)c(OC)c1 (centres undefined)
(2) CCCC(=O)OCC1CN(C(=O)c2cc(OC)c(OC)c(OC)c2)CCN1C(=O)c1cc(OC)c(OC)c(OC)c1 (centres undefined)
(3) CCCC(C)NC(=O)OCC1CN(C(=O)c2cc(OC)c(OC)c(OC)c2)CCN1C(=O)c1cc(OC)c(OC)c(OC)c1 (centres undefined)
Enquiry: Order the records so the highest pIC50 appears first and the lowest last. When ranking, write the labels in the order the request describes.
Return: 3, 2, 1
(3: 7.00, 2: 6.38, 1: 4.94)
